target: AP2-μ2 (μ2 subunit of clathrin-adaptor protein 2, residues 158–435) (Rattus norvegicus, UniProt P84092); construct: recombinant AP2-μ2 protein (residues 158–435) expressed in E. coli; made in house; host or cells: Escherichia coli BL21(DE3) RIL; assay: ITC binding of HPV E7-derived synthetic peptides to recombinant wild-type AP2-μ2
pKd: −log10 of the molar value. No end group written: not given here.

{"entry_sequence": "LHCYEELSEEETEEEPRF [HPV15 E7(24–41)]", "pKd": 4.88}

###

Molecular target: AP2-μ2 (μ2 subunit of clathrin-adaptor protein 2, residues 158–435) (Rattus norvegicus, UniProt P84092)
Construct: recombinant AP2-μ2 protein (residues 158–435) expressed in E. coli; made in house; host or cells: Escherichia coli BL21(DE3) RIL
Sequence (P84092 158-435): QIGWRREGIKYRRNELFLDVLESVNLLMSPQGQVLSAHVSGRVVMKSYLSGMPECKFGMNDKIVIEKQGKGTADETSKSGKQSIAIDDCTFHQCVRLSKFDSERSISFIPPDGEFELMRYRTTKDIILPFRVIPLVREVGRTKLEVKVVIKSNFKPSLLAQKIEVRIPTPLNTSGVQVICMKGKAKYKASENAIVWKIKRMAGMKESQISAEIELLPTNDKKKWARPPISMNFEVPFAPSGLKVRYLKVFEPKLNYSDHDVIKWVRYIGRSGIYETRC
Assay: ITC binding of HPV E7-derived synthetic peptides to recombinant wild-type AP2-μ2
Details: ITC; peptide titrated into wild-type recombinant AP2-μ2
measurement_name: binding to AP2-μ2 in ITC (result in words)

{"substance": "Y25N: 11-mer HPV16 E7 residues 22–32 synthetic peptide with Y25N mutation (LYCNEQLNDSS)", "result": "severely impaired"}
{"substance": "L28A: 11-mer HPV16 E7 residues 22–32 synthetic peptide with L28A mutation (LYCYEQANDSS)", "result": "severely impaired"}
{"substance": "Y25H: 11-mer HPV16 E7 residues 22–32 synthetic peptide with Y25H mutation (LYCHEQLNDSS)", "result": "severely impaired"}
